Sourced from patent US20220204476A1

compounds and their reported EC50
- Test system: SARS-CoV-2
- experiment_notes: SARS-CoV-2 in vitro plaque reduction assay in Vero E6 cells
- Type: cell-based
- test_settings: Severe acute respiratory syndrome coronavirus 2, Vero C1008, MOI 0.0001 pfu/cell, plaques counted after 48 h, >5 μM = did not reduce plaque numbers by half at 10 μM, read-out: SARS-CoV-2 Antiviral EC50

The following compounds have reported results that may help.
INSERT INTO measurements (compound, result) VALUES
  ('CC(C)C[C@H](NCC1CC1)C(=O)N[C@H](C#N)C[C@@H]1CCCNC1=O [Compound 77]', '> 5 µM'),
  ('Cc1cc(C)c(C(=O)OCC(=O)[C@H](C[C@@H]2CCCNC2=O)NC(=O)[C@H](CC(C)C)NC(=O)[C@H]2CCCO2)c(C)n1 [Compound 73]', '< 1 µM'),
  ('CC(C)C[C@H](NS(=O)(=O)N1CCCCC1)C(=O)N[C@H](C#N)C[C@@H]1CCCNC1=O [Compound 83]', '> 5 µM'),
  ('COc1cccc2[nH]c(C(=O)N[C@@H](CC(C)C)C(=O)N[C@@H](C[C@@H]3CCCNC3=O)C(=O)COC(=O)c3cnc(C)cc3C)cc12 [Compound 22]', '> 5 µM'),
  ('COc1cccc2[nH]c(C(=O)N[C@@H](CC(C)C)C(=O)N[C@@H](C[C@@H]3CCCNC3=O)C(=O)COC(=O)C3(C#N)CCCC3)cc12 [Compound 19]', '> 5 µM');

Consider the compound shown here: COc1cccc2[nH]c(C(=O)N[C@@H](CC(C)C)C(=O)N[C@@H](C[C@@H]3CCCNC3=O)C(=O)COC(=O)C3(C(F)(F)F)CC3)cc12 [Compound 15] What is its recorded EC50?
> 5 µM

----------
- assay_system: SARS-CoV-2 3CLP (Severe acute respiratory syndrome coronavirus 2)
- experiment_notes: SARS-CoV-2 3CLP inhibition, FRET-based cleavage assay
- Format: biochemical
- test_settings: 80 nM SARS-CoV-2 3CLP, 100 μM substrate, 37° C., 10 min incubation, pH 7.8; read-out: 3CL Protease IC50
reported_property: pIC50
Here pIC50 is given on a logarithmic scale as minus log10 of the concentration in mol/L.

The following molecules have reported results that may help.
INSERT INTO assay_data (molecule, numeric_result) VALUES
  ('CC(C)C[C@H](NCC1CC1)C(=O)N[C@H](C#N)C[C@@H]1CCCNC1=O [Compound 77]', 4.77),
  ('COc1cccc2[nH]c(C(=O)N[C@@H](CC(C)C)C(=O)N[C@@H](C[C@@H]3CCCNC3=O)C(=O)COC(=O)c3ccc(C(C)(C)C)nc3)cc12 [Compound 11]', 7.72),
  ('COc1cccc2[nH]c(C(=O)N[C@@H](CC(C)C)C(=O)N[C@@H](C[C@@H]3CCCNC3=O)C(=O)COC(=O)C3(C(F)(F)F)CCCCC3)cc12 [Compound 20]', 7.07),
  ('COc1cccc2[nH]c(C(=O)N[C@@H](CC(C)C)C(=O)N[C@@H](C[C@@H]3CCCNC3=O)C(=O)COC(=O)c3cccnc3C(F)(F)F)cc12 [Compound 10]', 7.28);

Consider the molecule shown here: CC(C)C[C@H](NCc1ncco1)C(=O)N[C@H](C#N)C[C@@H]1CCCNC1=O [Compound 91] What is its recorded pIC50?
4.43
